# test target: Glycogen synthase kinase-3 beta (Homo sapiens, UniProt P49841)
# Sequence (P49841 whole entry): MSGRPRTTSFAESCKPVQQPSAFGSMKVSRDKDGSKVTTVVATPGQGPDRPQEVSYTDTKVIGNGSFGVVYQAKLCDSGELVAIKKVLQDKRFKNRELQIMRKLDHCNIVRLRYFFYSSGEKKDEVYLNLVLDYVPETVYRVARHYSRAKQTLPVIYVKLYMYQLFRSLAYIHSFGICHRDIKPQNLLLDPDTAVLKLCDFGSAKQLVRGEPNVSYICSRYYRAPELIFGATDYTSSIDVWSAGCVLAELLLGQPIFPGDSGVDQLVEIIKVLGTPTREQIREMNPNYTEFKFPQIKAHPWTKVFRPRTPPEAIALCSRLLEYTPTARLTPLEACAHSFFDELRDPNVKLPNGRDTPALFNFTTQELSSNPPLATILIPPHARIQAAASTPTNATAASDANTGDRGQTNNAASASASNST
property label: Kd (nM)

sample smiles: CC(C)n1cnc2c(Nc3cccc(Cl)c3)nc(NCCO)nc21
unit of measure: nM
readout number: 126

* * *

# Tested on: MOLM-13
# test summary: Induction of apoptosis in human MOLM13 cells
# Assay type: functional, cell-based
pIC50: −log10 of the molar value.

sample smiles: CN(C)C[C@@H]1CCn2cc(c3ccccc32)C2=C(C(=O)NC2=O)c2cn(c3ccccc23)CCO1
test target: MOLM-13
pIC50: 6.15

* * *

# test target: Serine/threonine-protein kinase 4 (Homo sapiens)

compound: NC(=O)c1ccc(-c2nc(-c3ccc4c(c3)OCCO4)c(-c3ccccn3)[nH]2)cc1
ΔTm: 1.1 °C
--
compound: O=C1Nc2ccc(S(=O)(=O)O)cc2/C1=C1/Nc2ccccc2/C1=N\O
ΔTm: 7.4 °C
--
compound: COc1ccc2c(c[n+](C)c3c4cc5c(cc4ccc23)OCO5)c1OC [CHELERYTHRINE CHLORIDE]
ΔTm: -0.4 °C
--
compound: O=C1c2ccccc2-[n+]2ccc3c([nH]c4ccccc43)c21 [FASCAPLYSIN CHLORIDE]
ΔTm: -1.6 °C
--
compound: Cc1ccc(NC(=O)c2cccc(N(C)C)c2)cc1NC(=O)c1ccc(O)cc1
ΔTm: 0 °C
--
compound: COc1cc2ncnc(Nc3ccc(F)c(Cl)c3)c2cc1OCCCN1CCOCC1
ΔTm: 1.6 °C
--
compound: CC(C)(C)c1nc2c3ccc(F)cc3c3c(=O)[nH]ccc3c2[nH]1
ΔTm: 7.8 °C
--
compound: C[S+]([O-])c1ccc(-c2nc(-c3ccc(F)cc3)c(-c3ccncc3)[nH]2)cc1 (stereo unspecified)
ΔTm: 1 °C
--
compound: Nc1n[nH]c2nc3ccccc3nc12
ΔTm: 0.8 °C
--
compound: O=c1c(-c2ccc(O)cc2)coc2cc(O)cc(O)c12
ΔTm: 1.5 °C
--
compound: O=C1NC(=O)c2c1c1c3ccccc3[nH]c1n1cncc21 [ISOGRANULATIMIDE]
ΔTm: 2.5 °C
--
compound: Cc1ccc(NC(=O)c2ccc(CN3CCN(C)CC3)cc2)cc1Nc1nccc(-c2cccnc2)n1
ΔTm: 0.2 °C
--
compound: CN(C)c1ccc(CC2C(=O)Nc3ccccc32)cc1 (stereo unspecified)
ΔTm: 4.4 °C
--
compound: COc1cc2ncnc(Nc3ccc(NC(=O)c4ccccc4)cc3)c2cc1OC
ΔTm: 0.6 °C
--
compound: N#CC(C#N)=Cc1ccc(O)c(O)c1
ΔTm: 0.6 °C
--
compound: C=CNC#N
ΔTm: 1.9 °C
--
compound: Nc1ncnc2c1c(I)cn2[C@@H]1O[C@H](CO)[C@@H](O)[C@H]1O
ΔTm: 4.7 °C
--
compound: O=c1c(O)c(-c2ccc(O)c(O)c2)oc2cc(O)cc(O)c12
ΔTm: 5.4 °C
--
compound: COc1ccc(S(=O)(=O)N(CCO)c2ccccc2CN(C)C/C=C/c2ccc(Cl)cc2)cc1
ΔTm: -0.2 °C
--
compound: COc1ccc(CNc2nc(N(CCO)CCO)nc3c2ncn3C(C)C)cc1
ΔTm: 0.4 °C
--
compound: O=C1NC(=O)C(c2cn(CCCn3ccnc3)c3ccccc23)=C1Nc1ccccc1
ΔTm: 0.8 °C
--
compound: CC(=O)O/N=C1/C(=C2/C(=O)Nc3cc(Br)ccc32)Nc2ccccc21
ΔTm: 3.5 °C
--
compound: C[C@@H](N)[C@H]1CC[C@H](C(=O)Nc2ccncc2)CC1
ΔTm: 1.4 °C
--
compound: CC(C)c1nn(-c2c(Cl)cccc2Cl)c2nc(Cc3ccc(OCCO)cc3)[nH]c(=O)c12
ΔTm: 0.1 °C
--
compound: c1ccc(-c2n[nH]c3c2oc2ccccc23)cc1
ΔTm: 4.3 °C
--
compound: CC(C)(C)n1nc(-c2cccc3ccccc23)c2c(N)ncnc21
ΔTm: 3.2 °C
--
compound: COc1cc(OC)c(/C=C2\C(=O)Nc3ccccc32)c(OC)c1
ΔTm: -0.1 °C
--
compound: CC(C)(C)n1nc(-c2ccc(Cl)cc2)c2c(N)ncnc21
ΔTm: 2.1 °C
--
compound: O=C1Nc2ccccc2/C1=C\c1ccc[nH]1
ΔTm: 7.7 °C
--
compound: O=c1cc(-c2ccc(O)cc2)oc2cc(O)cc(O)c12
ΔTm: 2.8 °C
--
compound: Nc1n[nH]c2nnc(-c3c(-c4ccccc4)nn4ccccc34)cc12
ΔTm: 0.4 °C
--
compound: CC(C)n1cnc2c(NCc3ccccc3O)nc(NCCCO)nc21
ΔTm: 0.3 °C
--
compound: CCOC(=O)c1cnc2oc3ccc(O)cc3c2c1-c1ccccc1
ΔTm: 3.4 °C
--
compound: Cn1cc(C2=C(c3cn(CCCN)c4ccccc34)C(=O)NC2=O)c2ccccc21
ΔTm: 2.2 °C
--
compound: COc1ccc(CNC(=O)Nc2ncc([N+](=O)[O-])s2)cc1
ΔTm: 0.4 °C
--
compound: COC1=C2C[C@@H](C)C[C@H](OC)[C@H](O)[C@@H](C)/C=C(\C)[C@H](OC(N)=O)[C@@H](OC)/C=C\C=C(/C)C(=O)NC(=CC1=O)C2=O
ΔTm: 0.1 °C
--
compound: Nc1nccc(-c2c(-c3ccc(F)cc3)ncn2C2CCNCC2)n1
ΔTm: 2.6 °C
--
compound: CCN(CC)CCNC(=O)c1c(C)[nH]c(/C=C2\C(=O)Nc3ccc(F)cc32)c1C
ΔTm: 0.5 °C
--
compound: O=C1Nc2ccccc2/C1=C/c1cnc[nH]1
ΔTm: 8.4 °C
--
compound: CN[C@@H]1CC2O[C@@](C)([C@@H]1OC)n1c3ccccc3c3c4c(c5c6ccccc6n2c5c31)C(=O)NC4
ΔTm: 17.9 °C
--
compound: NC1=N/C(=C2/CCNC(=O)c3[nH]ccc32)C(=O)N1
ΔTm: 2.6 °C
